This collection of values is drawn from patent US11390606B2.

molecular target: skeletal myofibrils (Rabbit Psoas), myosin ATPase activity; construct: Rabbit Psoas Prep 11 (0.25 mg/mL); assay: Skeletal Myofibril ATPase Assay; conditions: skeletal myofibrils (Rabbit Psoas 0.25 mg/mL), PK/LDH-coupled NADH absorbance at 340 nm
METRIC: IC50

// worked examples, IC50 included
SMILES REPRESENTATION	ASSAY SYSTEM	OBSERVED MEASUREMENT
O=c1ccc(-c2ccc(F)cc2)nn1Cc1cccc(C(F)(F)F)c1	skeletal myofibrils (Rabbit Psoas), myosin ATPase activity	> 100 µM
O=C1Cc2cc(-c3ccc(=O)n(Cc4ccc(Cl)cc4)n3)ccc2N1	skeletal myofibrils (Rabbit Psoas), myosin ATPase activity	> 100 µM
COc1ccc(-c2ccc(=O)n(Cc3ccc(Cl)cc3)n2)cc1	skeletal myofibrils (Rabbit Psoas), myosin ATPase activity	< 10 µM

Field IC50 (entry Cc1ccc(-c2ccc(=O)n(Cc3ccc(F)cc3)n2)cc1 ) reads < 10 µM

Field IC50 (entry COc1ccc(-c2ccc(=O)n(Cc3ccc(Cl)cc3)n2)cn1 ) reads < 10 µM

###

target: skeletal myofibrils (Rabbit Psoas), myosin ATPase activity; construct: Rabbit Psoas Prep 11 (0.25 mg/mL); assay: Skeletal Myofibril ATPase Assay; settings: skeletal myofibrils (Rabbit Psoas 0.25 mg/mL), PK/LDH-coupled NADH absorbance at 340 nm
METRIC: IC50

// worked examples, IC50 included
COMPOUND	IC50
O=c1ccc(-c2cnc(OCC(F)(F)F)nc2)nn1Cc1ccc(O)c(Cl)c1	< 10 µM
O=c1ccc(-c2cnc(OCC(F)(F)F)nc2)nn1Cc1cccc(F)c1F	< 10 µM
Cc1ccc(Cn2nc(-c3ccc(Cl)cc3)ccc2=O)cc1	< 10 µM
O=c1ccc(-c2cnc(N3CC(F)(F)C3)nc2)nn1Cc1ccc(Cl)cc1	< 10 µM

Note: attention shifts to another entry.
Field IC50 (entry O=c1ccc(-c2cnc(N3CC(OC(F)(F)F)C3)nc2)nn1Cc1ccc(Cl)cc1 ) reads < 10 µM

###

Listing of entries alongside the reported pIC50.
target: skeletal myofibrils (Rabbit Psoas), myosin ATPase activity; construct: Rabbit Psoas Prep 11 (0.25 mg/mL); assay: Skeletal Myofibril ATPase Assay; settings: skeletal myofibrils (Rabbit Psoas 0.25 mg/mL), PK/LDH-coupled NADH absorbance at 340 nm
pIC50: −log10 of the molar value.

// worked examples, pIC50 included
SMILES REPRESENTATION	METRIC	OBSERVED MEASUREMENT
NC(=O)c1ccc(Cn2nc(-c3ccc(OC(F)F)cc3)ccc2=O)cc1	pIC50	< 4.00
O=c1ccc(-c2cnc(N3CCCC3)nc2)nn1Cc1ccc(F)cc1F	pIC50	> 5.00
O=c1ccc(-c2ccc(Cl)cc2)nn1Cc1ccc(F)cc1	pIC50	> 5.00
O=c1ccc(-c2cnc(OCC3COC3)nc2)nn1Cc1ccc(F)cc1F	pIC50	> 5.00
O=c1ccc(-c2ccc(OCC(F)F)cc2)nn1Cc1ccc(Cl)cc1	pIC50	> 5.00

Field pIC50 (entry O=c1ccc(-c2cnc(OCC(F)(F)F)nc2)nn1Cc1ccc(CO)cc1 ) reads > 5.00

Field pIC50 (entry O=c1ccc(-c2cnc(NCC(F)(F)F)nc2)nn1Cc1ccc(Cl)cc1 ) reads > 5.00

Field pIC50 (entry Cn1ncc2cc(-c3ccc(=O)n(Cc4ccc(Cl)cc4)n3)ccc21 ) reads < 4.00

Field pIC50 (entry COc1ccc(Cn2nc(-c3ccc(Br)cc3)ccc2=O)cc1 ) reads > 5.00

Field pIC50 (entry O=c1ccc(-c2cnc(OC(F)F)nc2)nn1Cc1ccc(Cl)cc1 ) reads > 5.00

Field pIC50 (entry O=c1ccc(-c2cnc(NCCOC(F)F)nc2)nn1Cc1ccc(Cl)cc1 ) reads > 5.00

Field pIC50 (entry O=c1ccc(-c2ccc(Cl)cc2)nn1Cc1cccc(Cl)c1 ) reads > 5.00

###

Biological target: skeletal myofibrils (Rabbit Psoas), myosin ATPase activity
Construct: Rabbit Psoas Prep 11 (0.25 mg/mL)
Experiment: Skeletal Myofibril ATPase Assay
Settings: skeletal myofibrils (Rabbit Psoas 0.25 mg/mL), PK/LDH-coupled NADH absorbance at 340 nm
Procedure: Overview: Myosin ATPase activity is assessed by using a coupled reaction system, in which ADP generated by the myosin ATPase function is coupled to the disappearance of NADH through the pyruvate kinase/lactate dehydrogenase (PK-LDH) system. Myosin ATPase activity produces ADP, which is used as a substrate for PK to produce pyruvate and regenerate ATP. […] The rate of the reaction is monitored through the time-dependent disappearance of NADH using absorbance at 340 nm. […]
METRIC: IC50

Field IC50 (entry O=c1ccc(-c2ccc(OCC3(F)COC3)nc2)nn1Cc1ccc(Cl)cc1 [Compound 21] ) reads < 10 µM

Field IC50 (entry CC1CCCN1c1ncc(-c2ccc(=O)n(Cc3ccc(F)cc3F)n2)cn1 (stereo not shown) [Compound 16] ) reads < 10 µM

Field IC50 (entry O=c1ccc(-c2cnc(OCC(F)(F)F)nc2)nn1Cc1ccc(Cl)cc1 [Compound 5] ) reads < 10 µM

Field IC50 (entry CNC(=O)c1ccc(-c2ccc(=O)n(Cc3ccc(Cl)cc3)n2)cc1 [Compound 113] ) reads 10 to 100 µM

Field IC50 (entry Cc1cccc(Cn2nc(-c3ccc(Cl)cc3)ccc2=O)c1 [Compound 314] ) reads < 10 µM

Field IC50 (entry N#Cc1ccc(Cn2nc(-c3ccc(Br)cc3)ccc2=O)cc1 [Compound 238] ) reads 10 to 100 µM

Field IC50 (entry O=c1ccc(-c2cnc(N3CC(C(F)(F)F)C3)nc2)nn1Cc1ccc(Cl)cc1 [Compound 4] ) reads < 10 µM

Field IC50 (entry CCCc1ccc(-c2ccc(=O)n(Cc3ccc(Cl)cc3)n2)cc1 [Compound 312] ) reads < 10 µM

Field IC50 (entry CN(C)c1ccc(-c2ccc(=O)n(Cc3ccc(Cl)cc3)n2)cn1 [Compound 27] ) reads < 10 µM

###

Listing of entries alongside the reported pIC50.
molecular target: skeletal myofibrils (Rabbit Psoas), myosin ATPase activity; construct: Rabbit Psoas Prep 11 (0.25 mg/mL); test: Skeletal Myofibril ATPase Assay; conditions: skeletal myofibrils (Rabbit Psoas 0.25 mg/mL), PK/LDH-coupled NADH absorbance at 340 nm
pIC50: −log10 of the molar value.

// worked examples, pIC50 included
COMPOUND	OBSERVED MEASUREMENT
O=c1ccc(-c2cnc(OCCOC(F)F)nc2)nn1Cc1ccc(Cl)cc1	> 5.00
COc1ccc(-c2ccc(=O)n(Cc3ccccc3)n2)cc1	> 5.00
O=c1ccc(-c2cnc(NC3CC3)nc2)nn1Cc1ccc(Cl)cc1	> 5.00
O=c1ccc(-c2ccc(OC(F)F)cc2)nn1Cc1ccc(Cl)cc1	> 5.00
O=c1ccc(-c2cnc(OCC3COC3)nc2)nn1Cc1ccc(Cl)cc1	> 5.00

Field pIC50 (entry O=c1ccc(-c2cnc(OCC(F)(F)F)nc2)nn1Cc1cccc(Cl)c1 ) reads > 5.00

Field pIC50 (entry O=c1ccc(-c2ccc(OC(F)F)nc2)nn1[C@@H](CO)c1ccc(Cl)cc1 ) reads < 4.00

Field pIC50 (entry O=c1ccc(-c2cnc(OCC(F)(F)F)nc2)nn1Cc1cccc(F)c1 ) reads > 5.00

###

Target: skeletal myofibrils (Rabbit Psoas), myosin ATPase activity
Construct: Rabbit Psoas Prep 11 (0.25 mg/mL)
Test: Skeletal Myofibril ATPase Assay
Settings: skeletal myofibrils (Rabbit Psoas 0.25 mg/mL), PK/LDH-coupled NADH absorbance at 340 nm
Method: Overview: Myosin ATPase activity is assessed by using a coupled reaction system, in which ADP generated by the myosin ATPase function is coupled to the disappearance of NADH through the pyruvate kinase/lactate dehydrogenase (PK-LDH) system. Myosin ATPase activity produces ADP, which is used as a substrate for PK to produce pyruvate and regenerate ATP. […] The rate of the reaction is monitored through the time-dependent disappearance of NADH using absorbance at 340 nm. […]
Listing of entries alongside the reported IC50.

// worked examples, IC50 included
MOLECULE	OBSERVED MEASUREMENT
CNc1ncc(-c2ccc(=O)n(Cc3ccc(Cl)cc3)n2)cn1 [Compound 12]	< 10 µM
O=c1ccc(-c2ccc(F)cc2)nn1Cc1cccc(F)c1 [Compound 242]	< 10 µM
O=c1ccc(-c2ccc3c(c2)CCO3)nn1Cc1ccc(Cl)cc1 [Compound 112]	< 10 µM
CC1CCC(=O)N1c1ncc(-c2ccc(=O)n(Cc3ccc(Cl)cc3)n2)cn1 (stereo not shown) [Compound 47]	< 10 µM
CC(=O)Nc1ccc(-c2ccc(=O)n(Cc3ccc(Cl)cc3)n2)cc1 [Compound 107]	< 10 µM
CN(CC(F)(F)F)c1ncc(-c2ccc(=O)n(Cc3ccc(F)cc3F)n2)cn1 [Compound 29]	< 10 µM
COCCOc1ccc(-c2ccc(=O)n(Cc3ccc(Cl)cc3)n2)cc1 [Compound 106]	< 10 µM
O=c1ccc(-c2ccc(F)cc2)nn1Cc1ccc(Cl)cc1 [Compound 300]	< 10 µM
O=c1ccc(-c2cnc(OCCOC(F)(F)F)nc2)nn1Cc1ccc(Cl)cc1 [Compound 2]	< 10 µM
O=c1ccc(-c2ccc(Cl)cc2)nn1Cc1ccc(C(F)(F)F)cc1 [Compound 305]	> 100 µM

Field IC50 (entry CN(C)S(=O)(=O)c1ccc(-c2ccc(=O)n(Cc3ccc(Cl)cc3)n2)cc1 [Compound 120] ) reads > 100 µM

Field IC50 (entry Cc1ccccc1Cn1nc(-c2ccc(Cl)cc2)ccc1=O [Compound 308] ) reads < 10 µM

Field IC50 (entry CNc1ccc(-c2ccc(=O)n(Cc3ccc(Cl)cc3)n2)cc1 [Compound 123] ) reads < 10 µM
